system: Escherichia coli TOP10; assay: shrunken log2 fold change of peptide-encoding DNA abundance (4.5 h post-induction vs induction); higher = less antimicrobial activity (less host growth inhibition); details: time post-induction: 4.5 h; library: site-saturation at positions 5, 18, 19, 20;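 also: peptides expressed intracellularly from a pBAD plasmid library in pooled LB shake-flask culture, induced with 0.3% L-arabinose, DNA abundance read by NGS, three biological replicates, DESeq2 with apeglm shrinkage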
Values of shrunken log2 fold change greater than or equal to 0.02 map to true (1); values below map to false (0).

[[record]]
ordered_residues = "RRIRARPPRLPRPRPRPVDNPRP"
class = "true (1)"

[[record]]
ordered_residues = "RRIRFRPPRLPRPRPRPRGGPRP"
class = "true (1)"

[[record]]
ordered_residues = "RRIRMRPPRLPRPRPRPWTPPRP"
class = "true (1)"

[[record]]
ordered_residues = "RRIRIRPPRLPRPRPRPNFAPRP"
class = "true (1)"

[[record]]
ordered_residues = "RRIRRRPPRLPRPRPRPYEYPRP"
class = "false (0)"

[[record]]
ordered_residues = "RRIRFRPPRLPRPRPRPNPCPRP"
class = "false (0)"

[[record]]
ordered_residues = "RRIRDRPPRLPRPRPRPETVPRP"
class = "false (0)"

[[record]]
ordered_residues = "RRIRWRPPRLPRPRPRPIDTPRP"
class = "false (0)"

[[record]]
ordered_residues = "RRIRQRPPRLPRPRPRPIDLPRP"
class = "false (0)"

[[record]]
ordered_residues = "RRIRCRPPRLPRPRPRPWKKPRP"
class = "false (0)"

[[record]]
ordered_residues = "RRIRCRPPRLPRPRPRPAREPRP"
class = "true (1)"

[[record]]
ordered_residues = "RRIRNRPPRLPRPRPRPCFDPRP"
class = "false (0)"

[[record]]
ordered_residues = "RRIRSRPPRLPRPRPRPYGRPRP"
class = "false (0)"

[[record]]
ordered_residues = "RRIRIRPPRLPRPRPRPHDIPRP"
class = "false (0)"

[[record]]
ordered_residues = "RRIRVRPPRLPRPRPRPPFNPRP"
class = "false (0)"

[[record]]
ordered_residues = "RRIRIRPPRLPRPRPRPRKEPRP"
class = "false (0)"

[[record]]
ordered_residues = "RRIRCRPPRLPRPRPRPLLPPRP"
class = "false (0)"

[[record]]
ordered_residues = "RRIRRRPPRLPRPRPRPLWEPRP"
class = "true (1)"

[[record]]
ordered_residues = "RRIRNRPPRLPRPRPRPTCHPRP"
class = "false (0)"

[[record]]
ordered_residues = "RRIRARPPRLPRPRPRPPYVPRP"
class = "false (0)"

[[record]]
ordered_residues = "RRIRQRPPRLPRPRPRPRVEPRP"
class = "false (0)"

[[record]]
ordered_residues = "RRIRHRPPRLPRPRPRPTDEPRP"
class = "false (0)"

[[record]]
ordered_residues = "RRIRDRPPRLPRPRPRPHTWPRP"
class = "false (0)"

[[record]]
ordered_residues = "RRIRMRPPRLPRPRPRPKNCPRP"
class = "true (1)"

[[record]]
ordered_residues = "RRIRWRPPRLPRPRPRPQKNPRP"
class = "true (1)"

[[record]]
ordered_residues = "RRIRPRPPRLPRPRPRPVKFPRP"
class = "true (1)"

[[record]]
ordered_residues = "RRIRWRPPRLPRPRPRPGTKPRP"
class = "true (1)"

[[record]]
ordered_residues = "RRIRGRPPRLPRPRPRPPWMPRP"
class = "true (1)"

[[record]]
ordered_residues = "RRIRGRPPRLPRPRPRPEAPPRP"
class = "true (1)"

[[record]]
ordered_residues = "RRIRDRPPRLPRPRPRPCHWPRP"
class = "false (0)"

[[record]]
ordered_residues = "RRIRFRPPRLPRPRPRPGFKPRP"
class = "true (1)"

[[record]]
ordered_residues = "RRIRQRPPRLPRPRPRPAHVPRP"
class = "false (0)"

[[record]]
ordered_residues = "RRIRCRPPRLPRPRPRPCLQPRP"
class = "false (0)"

[[record]]
ordered_residues = "RRIRFRPPRLPRPRPRPISLPRP"
class = "false (0)"

[[record]]
ordered_residues = "RRIRSRPPRLPRPRPRPTMGPRP"
class = "false (0)"

[[record]]
ordered_residues = "RRIRIRPPRLPRPRPRPDCVPRP"
class = "false (0)"

[[record]]
ordered_residues = "RRIRARPPRLPRPRPRPFAHPRP"
class = "true (1)"

[[record]]
ordered_residues = "RRIRKRPPRLPRPRPRPIFMPRP"
class = "true (1)"

[[record]]
ordered_residues = "RRIRRRPPRLPRPRPRPQPMPRP"
class = "true (1)"

[[record]]
ordered_residues = "RRIRVRPPRLPRPRPRPHSVPRP"
class = "false (0)"

[[record]]
ordered_residues = "RRIRKRPPRLPRPRPRPCCMPRP"
class = "true (1)"

[[record]]
ordered_residues = "RRIRVRPPRLPRPRPRPPGHPRP"
class = "true (1)"

[[record]]
ordered_residues = "RRIRQRPPRLPRPRPRPCIAPRP"
class = "false (0)"

[[record]]
ordered_residues = "RRIRVRPPRLPRPRPRPGNGPRP"
class = "true (1)"

[[record]]
ordered_residues = "RRIRGRPPRLPRPRPRPIPGPRP"
class = "true (1)"

[[record]]
ordered_residues = "RRIRMRPPRLPRPRPRPGKHPRP"
class = "true (1)"

[[record]]
ordered_residues = "RRIRGRPPRLPRPRPRPSMGPRP"
class = "true (1)"

[[record]]
ordered_residues = "RRIRSRPPRLPRPRPRPVREPRP"
class = "true (1)"

[[record]]
ordered_residues = "RRIRRRPPRLPRPRPRPEMRPRP"
class = "true (1)"

[[record]]
ordered_residues = "RRIRTRPPRLPRPRPRPGLEPRP"
class = "true (1)"

[[record]]
ordered_residues = "RRIRRRPPRLPRPRPRPNKMPRP"
class = "false (0)"

[[record]]
ordered_residues = "RRIRTRPPRLPRPRPRPVPFPRP"
class = "true (1)"

[[record]]
ordered_residues = "RRIRCRPPRLPRPRPRPWRWPRP"
class = "true (1)"

[[record]]
ordered_residues = "RRIRRRPPRLPRPRPRPGEHPRP"
class = "true (1)"

[[record]]
ordered_residues = "RRIRCRPPRLPRPRPRPKQYPRP"
class = "false (0)"

[[record]]
ordered_residues = "RRIRPRPPRLPRPRPRPWMVPRP"
class = "true (1)"

[[record]]
ordered_residues = "RRIRTRPPRLPRPRPRPMFIPRP"
class = "false (0)"

[[record]]
ordered_residues = "RRIRKRPPRLPRPRPRPITAPRP"
class = "true (1)"

[[record]]
ordered_residues = "RRIRSRPPRLPRPRPRPHVRPRP"
class = "true (1)"

[[record]]
ordered_residues = "RRIRFRPPRLPRPRPRPFFTPRP"
class = "false (0)"

[[record]]
ordered_residues = "RRIRTRPPRLPRPRPRPEFLPRP"
class = "false (0)"

[[record]]
ordered_residues = "RRIRERPPRLPRPRPRPYWRPRP"
class = "false (0)"

[[record]]
ordered_residues = "RRIRLRPPRLPRPRPRPEANPRP"
class = "true (1)"

